Catalogue of pIC50 values
Molecular target: C-terminal truncated core protein (HBV core dimer, BODIPY-FL labelled) (UniProt P03146)
Construct: fused on or other part: One added cysteine at position 150, labelled with BODIPY-FL maleimide; The C-terminal arginine-rich domain is absent
Sequence (P03146 whole entry, the tested form may be a part): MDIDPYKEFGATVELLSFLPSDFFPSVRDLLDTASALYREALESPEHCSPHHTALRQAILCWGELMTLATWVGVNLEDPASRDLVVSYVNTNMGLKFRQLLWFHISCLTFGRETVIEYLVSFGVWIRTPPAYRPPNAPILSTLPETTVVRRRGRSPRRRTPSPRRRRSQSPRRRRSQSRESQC
Experiment: Biochemical capsid assembly assay (fluorescence quenching)
pIC50: −log10 of the molar value.

{"COMPOUND": "C[C@@H](O)CNC(=O)C(=O)N1CCN(C(=O)c2cc3c(F)cc(F)cc3[nH]2)CC1", "pIC50": "> 5.30"}
{"COMPOUND": "CC(C)(C)NC(=O)C(=O)N1CCCN(C(=O)c2cc3ccccc3[nH]2)CC1", "pIC50": "> 4.00"}
{"COMPOUND": "CC(C)(CCO)CNC(=O)C(=O)N1CCN(C(=O)c2cc3c(F)cc(F)cc3[nH]2)CC1", "pIC50": "> 5.30"}
{"COMPOUND": "O=C(NCC1CCOC1)C(=O)N1CCN(C(=O)c2cc3ccccc3[nH]2)CC1 (centres unmarked)", "pIC50": "> 4.00"}
{"COMPOUND": "O=C(N[C@H]1CC[C@H](O)CC1)C(=O)N1CCN(C(=O)c2cc3ccccc3[nH]2)CC1", "pIC50": "> 4.00"}
{"COMPOUND": "C[C@H](NC(=O)C(=O)N1CCN(C(=O)c2cc3ccccc3[nH]2)CC1)C(F)(F)F", "pIC50": "> 5.30"}
{"COMPOUND": "O=C(NC1CCOC1)C(=O)N1CCN(C(=O)c2cc3ccccc3[nH]2)CC1 (centres unmarked)", "pIC50": "5.00 to 5.30"}
{"COMPOUND": "NC(=O)C1(CNC(=O)C(=O)N2CCN(C(=O)c3cc4ccccc4[nH]3)CC2)CC(F)(F)C1", "pIC50": "5.00 to 5.30"}
{"COMPOUND": "CCCCNC(=O)C(=O)N1CCN(C(=O)c2cc3ccccc3[nH]2)CC1", "pIC50": "> 5.30"}
{"COMPOUND": "CC(C)(CC(F)(F)F)NC(=O)C(=O)N1CCN(C(=O)c2cc3ccccc3[nH]2)CC1", "pIC50": "> 5.30"}
{"COMPOUND": "C#CCNC(=O)C(=O)N1CCN(C(=O)c2cc3ccccc3[nH]2)CC1", "pIC50": "> 5.30"}
{"COMPOUND": "O=C1CC2(CC(CNC(=O)C(=O)N3CCN(C(=O)c4cc5ccccc5[nH]4)CC3)C2)N1 (centres unmarked)", "pIC50": "> 4.00"}
{"COMPOUND": "CCCCCCNC(=O)C(=O)N1CCN(C(=O)c2cc3ccccc3[nH]2)CC1", "pIC50": "> 5.30"}
{"COMPOUND": "CC1(NC(=O)C(=O)N2CCN(C(=O)c3cc4ccccc4[nH]3)CC2)CCCCCC1", "pIC50": "5.00 to 5.30"}
{"COMPOUND": "CC(O)CNC(=O)C(=O)N1CCN(C(=O)c2cc3ccccc3[nH]2)CC1 (centres unmarked)", "pIC50": "> 5.30"}
{"COMPOUND": "O=C(NC1CCOCC1)C(=O)N1CCN(C(=O)c2cc3ccccc3[nH]2)CC1", "pIC50": "5.00 to 5.30"}
{"COMPOUND": "C[C@@H](NC(=O)C(=O)N1CCN(C(=O)c2cc3ccccc3[nH]2)CC1)C(F)(F)F", "pIC50": "> 5.30"}
